The compounds listed here are annotated with their pEC50.
# Measurement target: human mu opioid receptor (MOR) (Homo sapiens, UniProt P35372)
# Sequence (P35372 whole entry): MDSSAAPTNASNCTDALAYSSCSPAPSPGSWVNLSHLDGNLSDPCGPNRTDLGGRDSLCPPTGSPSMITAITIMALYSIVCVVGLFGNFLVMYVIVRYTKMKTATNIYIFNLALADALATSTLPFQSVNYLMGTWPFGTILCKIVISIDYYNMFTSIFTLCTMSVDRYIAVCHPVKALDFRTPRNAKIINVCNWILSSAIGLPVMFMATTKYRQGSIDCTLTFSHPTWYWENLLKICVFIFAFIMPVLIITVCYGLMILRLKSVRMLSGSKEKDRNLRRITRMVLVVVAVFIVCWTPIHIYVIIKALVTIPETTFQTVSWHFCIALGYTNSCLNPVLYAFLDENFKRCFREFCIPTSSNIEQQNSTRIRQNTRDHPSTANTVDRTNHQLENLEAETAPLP
# Assay explanation: BRET assay measuring G protein activation, agonist activity at human MOR (transfected HEK-293T cells)
# Experimental: The diarylthiazepinamine carboxylic acids (9) were tested for agonist activity at the human mu opioid receptor (MOR) and delta opioid receptor (DOR) using bioluminescence resonance energy transfer (BRET) assays measuring G protein activation as previously described (Table 1) (Rives, M.-L. et al. 2012; Negri, A. et al. 2013). Transfection. […] BRET. […] Following coelenterazine H addition, ligands were added and the BRET signal was measured at 5 minutes on a PHERAstar FS plate reader. […]
Counter-ions that a name gives are not always drawn.
pEC50 here: minus log base 10 of the concentration, concentration in moles per litre.

CN1c2ccccc2C(NCCCCCCCC(=O)O)c2ccc(I)cc2S1(=O)=O (racemic) [Compound 9e, hydrochloride salt]    7.62

Consider now this further compound.
Challenge: Can you share its pEC50? I mean this compound: CN1c2ccccc2C(NCCCCCCCCCC(=O)O)c2ccc(I)cc2S1(=O)=O (racemic) [Compound 9g, hydrochloride salt]
Response given: 7.58
